- System Tested: hERG potassium channel (Homo sapiens, UniProt Q12809)
- Construct: expressed in transfected cells
- Sequence (Q12809 whole entry): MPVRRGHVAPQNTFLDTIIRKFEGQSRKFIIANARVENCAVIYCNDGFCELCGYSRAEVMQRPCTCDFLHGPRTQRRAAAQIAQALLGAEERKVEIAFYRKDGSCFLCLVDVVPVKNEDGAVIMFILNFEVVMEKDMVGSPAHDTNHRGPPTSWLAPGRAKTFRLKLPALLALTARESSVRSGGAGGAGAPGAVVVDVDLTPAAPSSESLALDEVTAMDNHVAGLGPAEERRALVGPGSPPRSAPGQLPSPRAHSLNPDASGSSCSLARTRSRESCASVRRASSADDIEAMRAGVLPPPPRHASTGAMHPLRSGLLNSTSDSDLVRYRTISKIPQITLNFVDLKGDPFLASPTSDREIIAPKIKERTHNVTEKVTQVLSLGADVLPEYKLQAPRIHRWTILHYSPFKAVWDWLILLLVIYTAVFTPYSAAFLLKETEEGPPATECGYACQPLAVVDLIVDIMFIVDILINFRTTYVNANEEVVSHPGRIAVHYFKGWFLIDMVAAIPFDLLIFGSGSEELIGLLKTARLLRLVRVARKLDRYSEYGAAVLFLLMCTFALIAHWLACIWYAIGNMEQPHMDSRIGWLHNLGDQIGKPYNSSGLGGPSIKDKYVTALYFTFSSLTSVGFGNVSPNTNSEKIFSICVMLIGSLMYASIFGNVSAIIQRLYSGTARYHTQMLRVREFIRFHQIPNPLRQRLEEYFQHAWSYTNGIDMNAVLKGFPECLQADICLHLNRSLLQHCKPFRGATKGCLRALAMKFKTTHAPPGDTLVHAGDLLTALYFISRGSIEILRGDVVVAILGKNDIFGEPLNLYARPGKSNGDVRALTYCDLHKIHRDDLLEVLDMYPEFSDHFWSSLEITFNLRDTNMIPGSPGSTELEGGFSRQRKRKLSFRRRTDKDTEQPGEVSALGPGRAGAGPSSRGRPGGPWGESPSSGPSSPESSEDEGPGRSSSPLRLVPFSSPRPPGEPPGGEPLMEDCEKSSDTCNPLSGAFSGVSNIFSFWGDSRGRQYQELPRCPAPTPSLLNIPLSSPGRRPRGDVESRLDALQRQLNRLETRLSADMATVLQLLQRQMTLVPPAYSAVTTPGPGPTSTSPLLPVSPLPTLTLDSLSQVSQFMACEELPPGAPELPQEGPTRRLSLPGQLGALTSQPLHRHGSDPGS
- Method Description: hERG potassium channel whole-cell membrane clamp in CHO cells
- Type: cell-based
- Measurement Context: CHO cells stably expressing hERG, whole-cell membrane clamp
What IC50 was measured for each of the following?

IN: Record request: IC50 value, item COc1cc2c3cc1Oc1c(OC)c(OC)cc4c1[C@H](Cc1ccc(cc1)Oc1cc(ccc1C(=O)Nc1ccccc1)C[C@H]3N(C)CC2)N(C)CC4
OUT: > 20 µM

IN: Note, next up: CCCCCNC(=O)c1ccc2cc1Oc1ccc(cc1)C[C@H]1c3c(cc(OC)c(OC)c3Oc3cc4c(cc3OC)CCN(C)[C@@H]4C2)CCN1C
OUT: > 20 µM

IN: Note, next up: COc1cc2c3cc1Oc1c(OC)c(OC)cc4c1[C@H](Cc1ccc(cc1)Oc1cc(ccc1C(=O)O)C[C@H]3N(C)CC2)N(C)CC4
OUT: > 40 µM

IN: Note, next up: COc1cc2c3cc1Oc1c(OC)c(OC)cc4c1[C@H](Cc1ccc(cc1)Oc1cc(ccc1C(=O)NCCOCCO)C[C@H]3N(C)CC2)N(C)CC4
OUT: > 40 µM

IN: Note, next up: COc1cc2c3cc1Oc1c(OC)c(OC)cc4c1[C@H](Cc1ccc(cc1)Oc1cccc(c1)C[C@H]3N(C)CC2)N(C)CC4
OUT: > 40 µM
